Values were extracted from patent US20160264649A1.

target: HIV-1 Env of isolate MGRM-D-029 (subtype D) (HIV-1); test: cell-based or functional assay
The entries below come with measured IC50 (neutralization) values attached.

Recorded results for 2 binders are shown here.
• PGT-135 (antibody, V domains shown) VH: QLQMQESGPGLVKPSETLSLSCTVSGDSIRGGEWGDKDYHWGWVRHSAGKGLEWIGSIHWRGTTHYKESLRRRVSMSIDTSRNWFSLRLASVTAADTAVYFCARHRHHDVFMLVPIAGWFDVWGPGVQVTVSS VL: EIVMTQSPDTLSVSPGETVTLSCRASQNINKNLAWYQYKPGQSPRLVIFETYSKIAAFPARFVASGSGTEFTLTINNMQSEDVAVYYCQQYEEWPRTFGQGTKVDIK = 30.8 µg/mL
• PGT-126 (antibody, V domains shown) VH: QPQLQESGPGLVEASETLSLTCTVSGDSTAACDYFWGWVRQPPGKGLEWIGGLSHCAGYYNTGWTYHNPSLKSRLTISLDTPKNQVFLKLNSVTAADTAIYYCARFDGEVLVYHDWPKPAWVDLWGRGTLVTVSS VL: QSALTQPPSASGSPGQSISISCTGTSNRFVSWYQQHPGKAPKLVIYGVNKRPSGVPDRFSGSKSGNTASLTVSGLQTDDEAVYYCSSLVGNWDVIFGGGTKLTVL = > 50 µg/mL

Let us examine a further case.
Input: Which value of IC50 (neutralization) has been reported for PGT-123 (antibody, V domains shown) VH: QLHLQESGPGLVKPPETLSLTCSVSGASINDAYWSWIRQSPGKRPEWVGYVHHSGDTNYNPSLKRRVTFSLDTAKNEVSLKLVDLTAADSATYFCARALHGKRIYGIVALGELFTYFYMDVWGKGTAVTVSS VL: SSMSVSPGETAKISCGKESIGSRAVQWYQQKPGQPPSLIIYNNQDRPAGVPERFSASPDFRPGTTATLTITNVDAEDEADYYCHIYDARGGTNWVFDRGTTLTVL in the records?
Output: > 50 µg/mL
